target: human CK1α (Homo sapiens); construct: Full-length human CK1α, CK1γ1, CK1γ2, CK1γ3; GST (N); purchased Carna Biosciences, Inc; host or cells: baculovirus system (insect cells); assay: In vitro kinase assay (QuickScout mobility shift assay), CK1α; type: biochemical; settings: substrate peptide CKtide; ATP at Km 4.1 μM; average of duplicated experiments; read-out: IC50 on the kinase activity of CK1α
Sequence (P48729 whole entry): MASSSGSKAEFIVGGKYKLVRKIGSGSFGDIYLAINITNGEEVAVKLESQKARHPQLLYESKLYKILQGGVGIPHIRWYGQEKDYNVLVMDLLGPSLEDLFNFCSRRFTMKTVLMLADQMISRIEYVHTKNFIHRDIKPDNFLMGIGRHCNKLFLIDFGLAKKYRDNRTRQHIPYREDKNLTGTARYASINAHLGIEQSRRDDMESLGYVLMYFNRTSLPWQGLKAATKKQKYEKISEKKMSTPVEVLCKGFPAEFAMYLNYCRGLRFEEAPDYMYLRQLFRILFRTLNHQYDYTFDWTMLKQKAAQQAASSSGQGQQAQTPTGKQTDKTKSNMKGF
RESULT TYPE: pIC50
One number for each entry, as −log10 of the molar value.

pIC50 in this record for CCN1/C(=C/C(C)=O)Sc2ccc(OC)cc21 : 6.48

###

target: human CK1γ1 (Homo sapiens); construct: Full-length human CK1α, CK1γ1, CK1γ2, CK1γ3; GST (N); purchased Carna Biosciences, Inc; host or cells: baculovirus system (insect cells); assay: In vitro kinase assay (QuickScout mobility shift assay), CK1γ1; type: biochemical
Sequence (Q9HCP0 whole entry): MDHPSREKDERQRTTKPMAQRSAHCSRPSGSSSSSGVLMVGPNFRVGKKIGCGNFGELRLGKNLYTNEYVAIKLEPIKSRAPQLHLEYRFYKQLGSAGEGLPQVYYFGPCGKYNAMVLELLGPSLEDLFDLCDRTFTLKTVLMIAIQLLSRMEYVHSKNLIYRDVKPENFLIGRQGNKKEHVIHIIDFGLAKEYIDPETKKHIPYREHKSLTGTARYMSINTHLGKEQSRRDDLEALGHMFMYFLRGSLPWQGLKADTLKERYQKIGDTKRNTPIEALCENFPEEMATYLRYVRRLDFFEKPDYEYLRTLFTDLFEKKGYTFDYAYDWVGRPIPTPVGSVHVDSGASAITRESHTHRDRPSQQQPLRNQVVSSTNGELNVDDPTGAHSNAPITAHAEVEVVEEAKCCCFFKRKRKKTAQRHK
RESULT TYPE: IC50

IC50 in this record for COc1cc(OC)c(C=C2C(O)=Nc3ccccc32)c(OC)c1 : > 30 µM
